METHOD SUMMARY: The drug is tested on Bacteroides uniformis strain: ATCC8492 for biotransformation. The drug concentrations were measured before and after a 12-h incubation by liquid-chromatography-coupled mass spectrometry (LC–MS)
COND: 2 µM
RECORDED ENDPOINT: Bacterial Biotransformation

COMPOUND	Bacterial Biotransformation
Cc1ccc(S(=O)(=O)NC(=O)NN2CCCCCC2)cc1 [TOLAZAMIDE]	Compound metabolized
Cc1nc2n(c(=O)c1CCN1CCC(c3noc4cc(F)ccc34)CC1)CCCC2 [RISPERIDONE]	Compound NOT metabolized
CC[C@@H](CO)NC(=O)[C@@H]1C=C2c3cccc4c3c(cn4C)C[C@H]2N(C)C1.O=C(O)/C=C\C(=O)O [METHYSERGIDE MALEATE]	Compound metabolized
CCOc1cc(CC(=O)N[C@@H](CC(C)C)c2ccccc2N2CCCCC2)ccc1C(=O)O [REPAGLINIDE]	Compound metabolized
CCN(CC)CCNC(=O)c1ccc(NC(C)=O)cc1 [ACECAINIDE]	Compound metabolized

Field request: Bacterial Biotransformation | item: CC(Oc1c(Cl)cccc1Cl)C1=NCCN1 (centres undefined) [LOFEXIDINE] Compound metabolized

Repeat with OC(CCN1CCCCC1)(c1ccccc1)C1CC2C=CC1C2 (centres undefined) [BIPERIDEN] Compound NOT metabolized

Same thing, different compound: CC(C(=O)O)c1ccc2c(c1)Cc1cccnc1O2 (centres undefined) [PRANOPROFEN] Compound metabolized

Also check CN1C(C(=O)Nc2ccccn2)=C(O)c2sccc2S1(=O)=O [TENOXICAM] Compound NOT metabolized
